Molecular target: UniProtKB P56373
Sequence (P56373 whole entry): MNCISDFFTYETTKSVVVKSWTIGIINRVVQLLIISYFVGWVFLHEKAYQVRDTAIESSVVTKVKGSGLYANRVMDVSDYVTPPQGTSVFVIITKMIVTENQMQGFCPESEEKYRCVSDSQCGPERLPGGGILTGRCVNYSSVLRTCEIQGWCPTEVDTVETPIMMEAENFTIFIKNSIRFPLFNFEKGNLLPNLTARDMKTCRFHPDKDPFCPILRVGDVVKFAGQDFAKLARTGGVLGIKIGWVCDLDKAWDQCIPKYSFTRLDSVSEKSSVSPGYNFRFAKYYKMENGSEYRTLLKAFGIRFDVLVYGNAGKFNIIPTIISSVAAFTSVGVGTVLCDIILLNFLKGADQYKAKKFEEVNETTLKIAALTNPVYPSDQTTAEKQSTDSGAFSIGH
Assay: Evaluation of human P2X3 receptor inhibitory activity (Fluo-3 calcium fluorescence, FDSS 3000, ATP stimulation)
Type: cell-based
Settings: C6BU-1 cells stably expressing human P2X3 receptor, Fluo-3 fluorescence, FDSS 3000
# pIC50 listing for each entry below
Keep in mind that pIC50 stands for -log10 of concentration in molar terms.

                            compound_string  measurement_label  recorded_result
0  Cc1nc2ccc(/N=c3\[nH]c(=O)n(CCC4COC(C)(C)OC4)c(=O)n3Cc3ccc(Cl)cc3)cc2s1              pIC50             8.30

**Q:** For the molecule "CCc1ccc(Cn2c(=O)n(C[C@H](C)C(=O)OC)c(=O)[nH]/c2=N\c2ccc(OC(C)C)cc2)cc1" , what pIC50 is on record?
**A:** 7.29

**Q:** // repeat for "COc1ccc(Oc2ccc(/N=c3\[nH]c(=O)n(CC(CO)CO)c(=O)n3Cc3ccc(Cl)cc3)cc2)cn1" and report
**A:** 8.40

**Q:** // repeat for "Cc1ccc(Cn2c(=O)n(CCC(=O)O)c(=O)[nH]/c2=N\c2ccc(OCCC(C)C)cc2)cc1" and report
**A:** 6.33

**Q:** // repeat for "COC(=O)[C@@H](C)Cn1c(=O)[nH]/c(=N\c2ccc(O[C@@H](C)C(F)(F)F)cc2)n(Cc2ccc(Cl)cc2)c1=O" and report
**A:** 7.21

**Q:** // repeat for "CC[C@@H](C)Oc1ccc(/N=c2\[nH]c(=O)n(C[C@H](C)C(=O)O)c(=O)n2Cc2ccc(Cl)cn2)cc1Cl" and report
**A:** 7.74

**Q:** // repeat for "CCC(CC)Oc1ccc(/N=c2\[nH]c(=O)n(C[C@H](C)C(=O)OC)c(=O)n2Cc2ccc(C)cc2)cc1" and report
**A:** 7.42

====

Molecular target: UniProtKB P56373
Experiment: Evaluation of human P2X3 receptor inhibitory activity (Fluo-3 calcium fluorescence, FDSS 3000, ATP stimulation);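 also: stimulus was 50 nM ATP with fluorescence followed for 3 min, and the response per well was peak post-ATP fluorescence divided by the reading at measurement start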
Assay type: cell-based
Conditions: C6BU-1 cells stably expressing human P2X3 receptor
MEASUREMENT LABEL: log10(IC50) (log10 of the value in nM)
Each number you see is log10 of IC50, and the unit inside the log is nM.

// solved cases for log10(IC50) follow
                            compound_string       test_system  recorded_result
0  COC(=O)[C@@H](C)[C@@H](C)n1c(=O)[nH]/c(=N\c2ccc(OC(C)C)c(F)c2)n(Cc2ccc(Cl)cc2)c1=O  UniProtKB P56373             1.60
1  CCCc1ccc(/N=c2\[nH]c(=O)n(CCC(=O)OCC)c(=O)n2Cc2ccc(Cl)cc2)cc1C  UniProtKB P56373             1.73
2  CCOc1ccc(/N=c2\[nH]c(=O)n(CCC(=O)O)c(=O)n2Cc2ccc(C)cc2)c(F)c1F  UniProtKB P56373             1.83
3  Cn1c(=O)[nH]/c(=N\c2ccc(Oc3cccc(C(=O)O)c3)cc2)n(Cc2ccc(Cl)cc2)c1=O  UniProtKB P56373             1.60
4  CCCOc1ccc(/N=c2\[nH]c(=O)n([C@H](C)[C@H](C)C(=O)O)c(=O)n2Cc2ccc(C)cc2)cc1  UniProtKB P56373             1.76
5  Cc1ccc(Cn2c(=O)n(C[C@H](C)C(=O)O)c(=O)[nH]/c2=N\c2ccc3oc(C)cc3c2)cc1  UniProtKB P56373             1.69

**Q:** For the compound "CCOC(=O)CCn1c(=O)[nH]/c(=N\c2ccc(OC3CCC3)c(Cl)c2)n(Cc2ccc(Cl)cc2)c1=O" , what log10(IC50) is on record?
**A:** 0.95

**Q:** // repeat for "Cc1ccc(Cn2c(=O)n(CCC(=O)O)c(=O)[nH]/c2=N\c2ccc3c(ccc(=O)n3C)c2)cc1" and report
**A:** 2.46

**Q:** // repeat for "COc1cc(/N=c2\[nH]c(=O)n(C[C@H](C)C(=O)O)c(=O)n2Cc2ccc(Cl)cc2)ccc1CC(C)C" and report
**A:** 1.08

**Q:** // repeat for "Cc1ccc(Cn2c(=O)n([C@@H](C)[C@@H](C)C(=O)O)c(=O)[nH]/c2=N\c2ccc(OC3CCC3)cc2)cc1" and report
**A:** 1.26

Origin of the recorded values: patent US9718790B2
